test system: Jurkat; test: Cell proliferation assay, Alamar Blue, Jurkat; assay type: cell-based; details: Homo sapiens, Table 16;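 also: cells exposed to compound for about 4 days at 37 °C, then Alamar Blue added and fluorescence read after about 4 h, controls given medium without drug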
// pIC50 lookup, one value per entry
Keep it numeric: pIC50 is minus log10 of the concentration in mol/L.

• CNC(=O)c1cccc(Nc2nc3cc(C(=O)O)ccc3c3sccc23)c1 = 5.06
• Clc1cccc(Nc2nc3cc(-c4nnn[nH]4)ccc3c3sccc23)c1 = 5.05

Item O=C(O)c1ccc2c(c1)nc(Nc1ccccc1)c1ncsc12 has what recorded pIC50?
5.13

# credit: patent US9062043B2
